B1: LINE1-full (parent)
chain: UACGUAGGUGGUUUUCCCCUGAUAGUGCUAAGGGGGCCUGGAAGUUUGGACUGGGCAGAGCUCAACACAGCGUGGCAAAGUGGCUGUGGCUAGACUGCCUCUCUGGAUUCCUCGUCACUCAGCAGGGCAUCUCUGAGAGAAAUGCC

- Variants of: B1
- Assay Method Text: self-cleavage, relative activity (ratio to wild type); higher = more cleavage; in vitro, sequencing; the parent is a self-cleaving ribozyme
self-cleavage values by entry
Hey, just send me the number, nothing else.

Using the record for U134A G135U , state its measured self-cleavage.
1.21
